Tested on: 323965-272-R-J2-PDC complex spheroid viability
procedure summary: Anticancer human tumor 323965-272-R-J2-PDC patient-derived pancreatic carcinoma cell line growth inhibition [CLK]
experimental parameters: second compound 0.1 µM; first compound 1 µM; stronger effect = lower value
measurement kind: viability, T/C (%)
Give bare numbers, in %.

Here's what some known entries look like.
{"molecule": "CCCS(=O)(=O)Nc1ccc(F)c(C(=O)c2c[nH]c3ncc(-c4ccc(Cl)cc4)cc23)c1F + CN1CCN(c2cc(C(=O)Nc3cc4cc(-c5cnn(C)c5)ccc4cn3)ccn2)CC1", "assay target": "323965-272-R-J2-PDC complex spheroid viability", "unit of measure": "%", "obs value": 83}
{"molecule": "C=C(F)C(=O)N1CCN(c2nc(OCC3CCCN3C)nc3c2CCN(c2cccc4cccc(Cl)c24)C3)CC1CC#N (stereo not given) + CNC(=O)c1ccc(Nc2nc(OC3CCCC3)c3c(-c4ccc5nc(C)oc5c4)c[nH]c3n2)c(OC)c1", "assay target": "323965-272-R-J2-PDC complex spheroid viability", "unit of measure": "%", "obs value": 48.5}
{"molecule": "C#Cc1c(F)ccc2cc(O)cc(-c3ncc4c(N5CC6CCC(C5)N6)nc(OCC56CCCN5CC(F)C6)nc4c3F)c12 (stereo not given) + CN1CCN(c2cc(C(=O)Nc3cc4cc(-c5cnn(C)c5)ccc4cn3)ccn2)CC1", "assay target": "323965-272-R-J2-PDC complex spheroid viability", "unit of measure": "%", "obs value": 63.3}
{"molecule": "COc1ccc([C@@H](O)c2cc(-c3ncnc4cc(N5CCOCC5)ccc34)c(F)cc2Cl)nn1 + CNC(=O)c1ccc(Nc2nc(OC3CCCC3)c3c(-c4ccc5nc(C)oc5c4)c[nH]c3n2)c(OC)c1", "assay target": "323965-272-R-J2-PDC complex spheroid viability", "unit of measure": "%", "obs value": 70.7}

# context switch: different molecule, same viability, T/C
[in] Quick check: viability, T/C of Nc1ccn(C2OC(CO)C(O)C2(F)F)c(=O)n1 (stereo not given) + CNC(=O)c1ccc(Nc2nc(OC3CCCC3)c3c(-c4ccc5nc(C)oc5c4)c[nH]c3n2)c(OC)c1 ?
[out] 32.3

---

Tested on: 323965-272-R-J2-PDC complex spheroid viability
procedure summary: Anticancer human tumor 323965-272-R-J2-PDC cell line growth inhibition [CLK];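 further: spheroids exposed to agents for seven days before readout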
experimental parameters: curve of first compound; second compound 0.316 µM
Field: IC50. Provide a value for each of the compounds that follow.

Reference set (2 entries):
{"compound": "CCc1c2c(nc3ccc(O)cc13)-c1cc3c(c(=O)n1C2)COC(=O)[C@]3(O)CC + CN1CCN(c2cc(C(=O)Nc3cc4cc(-c5cnn(C)c5)ccc4cn3)ccn2)CC1", "IC50": "< 3.16 nM"}
{"compound": "C=CC(=O)N1CCN(c2nc(=O)n(-c3c(C)ccnc3C(C)C)c3nc(-c4c(O)cccc4F)c(F)cc23)C(C)C1 (stereo not drawn) + CN1CCN(c2cc(C(=O)Nc3cc4cc(-c5cnn(C)c5)ccc4cn3)ccn2)CC1", "IC50": "< 31.6 nM"}

[in] I have this compound here, CC(C)CC(NC(=O)C(Cc1ccccc1)NC(=O)c1cnccn1)B(O)O (stereo not drawn) + CN1CCN(c2cc(C(=O)Nc3cc4cc(-c5cnn(C)c5)ccc4cn3)ccn2)CC1 , and I need its recorded IC50.
[out] < 0.949 nM
